The reported measurements were obtained from the nanobody polyreactivity screen of Harvey et al. (2022).

# Experimental protocol: yeast display, Sf9 membrane polyspecificity reagent, FACS + sequencing; frameworks hold sequencing errors
Endpoint label: polyreactivity (PSR sort gate)

Examples from the recorded data:
In: Consider the sequence QVQLVESGGGLVQAGGSLRLSCAASGFTFGENAIGWYRQAPGKERELVAAIRYSGGSTYYADSVKGRFTISRDNAKNTVYLQMNSLKPEDTAVYYCNADTYALGAAVIPGDEYWGQGTQVTVSS . State its measured polyreactivity (PSR sort gate).
Out: low polyreactivity

In: Consider the sequence QVHLVESGGGLVQAGGSLRLSCAASGRTFKHYAMGWYRQEPGKERELVAAITSGGSTYYADSVKGLFTISRDNAKNPVYLQMNSLKPEDTAVYYCNTESFFDTYRRYDSWGQGTQVTVSS . State its measured polyreactivity (PSR sort gate).
Out: low polyreactivity

In: Consider the sequence QVQLGESGGGLVQAGGSLRLSCAASGSTFGGYAMGWYRQAPGKERELVAAISSSGTSTYYADSVKGRFTISRDNAKNTVYLQMNSLKPDDTAVYYCATDFSFFSRFDYWGQGTQVTVSS . State its measured polyreactivity (PSR sort gate).
Out: low polyreactivity

In: Consider the sequence QVQIVESGGGLVQAGGSLRLSCAASGITFDTYVMGWYRQAPGKERELVATISESVGNTYYADSVKGRFTISRDNEKNTVYLQMNILKPEDTAVDYCYTSRYYTIYTYYYWGQGTQVTVSS . State its measured polyreactivity (PSR sort gate).
Out: low polyreactivity

More entries:
In: Consider the sequence QVQLVESGGGLVQAGGSLRLSCAASGSIFVIYAMGWYRQAPGKERELVAAITWNGGSTVYADSVKGRFTISRDNAKNTVYLQMNSLKPEDTAVYSCNAVAVSNSGWEYDYWGQGTQVTVSS . State its measured polyreactivity (PSR sort gate).
Out: low polyreactivity

###

# Experimental protocol: yeast display, Sf9 membrane polyspecificity reagent, FACS + sequencing; frameworks hold sequencing errors
Endpoint label: polyreactivity (PSR sort gate)

In: Consider the sequence QVQLVESGGGLVQAGGSLRLSCAASGSTFAGNGMGWSRQAPGKERELVAGIDVTGGSTYYADSVKGRFTISRDNAKNTVYLQMNSLKPEDTAVYYCNARYVYHSSFAGFDYWGQGTQVTVSS . State its measured polyreactivity (PSR sort gate).
Out: low polyreactivity

In: Consider the sequence QVQLVESGGGLVQAGGSLRLSSAASGRIFKYYVMGWYRQAPGKEREFVAAISGRGGRTYYADSVKGRFTISRDNAKNTVYLQMNSLKPEDTAVYYCATERQDRGPLGYNYWGQGTQVTVSS . State its measured polyreactivity (PSR sort gate).
Out: high polyreactivity

In: Consider the sequence QVQLVESGGGLVQAGGSLRLSCAASGFTFGNNAMGWYRQAPGTERELVAAISYGGGRTYYADSVKGRFTISRDNAKNTVYLQMNSLKPEDTAVYYCAKDPKYPLSGGYDYWGQGTQVTVSS . State its measured polyreactivity (PSR sort gate).
Out: low polyreactivity

In: Consider the sequence QVQLVESGGGLVQAGGSLRLRCAASGLIFIFNAMGWYRQAPGKERELVAAIDTSDDSTYYADSVKGRFTISRDNAKNTVYLQMNSMKPEDTAVYYCAAEELSNYEYWGQGTQVTVSS . State its measured polyreactivity (PSR sort gate).
Out: low polyreactivity

In: Consider the sequence QVQLVESGGGLVQAGGSLRLSCAASGIIFASNAMGWYRQAPGKQRELVATINWTDSSTYYADSVKGRFTISRDNAKNTVYLQMNSLKPEDTAVYYCAVVDVEEHVGHWGQGTQVTVSS . State its measured polyreactivity (PSR sort gate).
Out: low polyreactivity

In: Consider the sequence QVQLVESGGGLVQAGGSLRLSCAASGFVWNAMGWYRPAPGTERELVAAINWRGGSTNYADSVKGRFTISRDNAKNTVYLQMNSLKPEDTAVYYCAAYFFHYHFYQAAYDYWGQGTQVTVSS . State its measured polyreactivity (PSR sort gate).
Out: low polyreactivity

Give measured polyreactivity (PSR sort gate) for every item shown.
1. QVQLVESVGGLVQAGGSLRLSCAASGFTFDENAMGWYSQAPGINYSGASTYYADSVKGRFTLSRDNAKNTVYLQMNSLKQEDTAVNYCAAEVVAQLNYWGPGTQVTVSS
2. QVQLVESGGGLVQAGGSLRITCAASGSTYYHNVMGRYRPAPGKERELVARISSGGGSTSYADSVKGRFTISRDNAKNTVYLQMNSLKPEETAVYYCNKYYTKRGYFLPWYHYGSWGQGTQVTLSS

Out:
["low polyreactivity", "high polyreactivity"]

Give measured polyreactivity (PSR sort gate) for every item shown.
1. QVQLVESGGGLVQAGGSLRLSCAASGSTFGYYAMGWYRQAPGKERELVAAITSSGGSTYYSDSVKGRFTISRDNAKNTVYLQMYSMNPEDTAVYDCNTRWCFYIDPFYYEYDYWGQGSQVTVSS
2. QVQLLESGGGLVQPGGSLRLSCAASGSTFIGYAMGWYRQAPGKETELVAAISWSGGRTYYADSVKGRFTISRDNAKNTVYLQMNSLKAEDTAVYYCNTVPYRISVQFNYWGQGTQVTVSS
3. QVQLVESGGGLVQAGGSLRLSCAASGRTFYRYAMGWYRQPPGKESELVARIRATGGSTYYADSVKGRFTISRDYAKNTVYSQMNSLKPEDTAVYYCAAKIRWGSTWLGAGDYWGQGTQVTVSS
4. QVQLVESGGGLVQAGGSLRLSCAASGFTFSSYAMGWYRQAPGKERELVAAITQSGGRTYYADSVKGRFTISRDNAKNTVYLQMNSLKPEDTAVYYCAADVPLWYDYGGQGTQVTVSS

Out:
["low polyreactivity", "high polyreactivity", "high polyreactivity", "low polyreactivity"]

###

# Experimental protocol: yeast display, Sf9 membrane polyspecificity reagent, FACS + sequencing; frameworks hold sequencing errors
Endpoint label: polyreactivity (PSR sort gate)

In: Consider the sequence QVQLVESGGGLVQAGGSLRLSCAASGFTFIYYAMGWYRQAPGKERELVAAISSRTGRTYYADSVKGRFTISRDNAKNTVYLQMNSLKPEDTAVYYCNADRNWRSGKFNYWGQGTQVTVSS . State its measured polyreactivity (PSR sort gate).
Out: high polyreactivity

In: Consider the sequence QVHLVESGGRLVQAGGSIRLSCAASGLTYGSYAMGWYRQAPGKERELVAAIYQSGGSTYYADSVMARFTISRDNANNTVYLQMNRLKPEDTVVYYCNAEAWVTLDWWQWVAYDFWGQGTQVTVSS . State its measured polyreactivity (PSR sort gate).
Out: high polyreactivity

In: Consider the sequence QVQLVESGGGLVQAGGSLRLSCAASGRTFRSNAMGWYRQAPGKERELVAAIRNSDGSTNYADSVKGRFTISRDNAKNNVYLQMNSLKPEDTAVYYCAASSTVGGITRILYYYWGQGTQVTVSS . State its measured polyreactivity (PSR sort gate).
Out: high polyreactivity

In: Consider the sequence QVQLVESGGGLVQAGGSLRLSCAASGSIFGYNAMGWYRPAPGKERELVAAISRSGGSTYYADSVKGRFTISRDNAKNTVYLQMNSLKPEDTAVSYCATGYYGYRYGYWGQGTQVTVSS . State its measured polyreactivity (PSR sort gate).
Out: high polyreactivity

Give measured polyreactivity (PSR sort gate) for every item shown.
1. QVQLVESGGGLVQAGGSLRLSCAASGFTFIRYARGWYRPAPGKERELVAAIRGTGTSTYYADSVKGRFTISRDNAKNTVYLQMNSLKPEDTAVDYCNTVAGRSPYTRYDYWGQGTQVTVSS
2. QVQLVESGGGLDQAGGSLRLSCAASGSIFWYNTMGWYRQAPGKERELVAAITFSGGSTYYADSVKGRFTISRDNAKNTVYLQMNSLKPEDTAVYYCAAVFYSAVGYFYWGQGTQVTVSS
3. QVQLVESGGRLVQAGGSLRLSCAASGSIFGGNDMGWYRQAPGKERELVAAITSSGGSTYYADSVKGRFTISRDNAKNTVYLQMNSLKPEDTAVYYCNADYYGPYRDYGYWGQGTQVTVSS
4. QVQLVESGGGLVQAGGSLRLSCASSGRIFNGNTMGWYRQAPGKERELVAGITGSSGSTYYADSVKGRFTISRDNANNSVYLPMNSLKPEDTGVYYCAAGRRYRCVGYGYWGQGTQVTVSS
5. QVQLVEKGGGLVQAGGSLRLSCAASGSTFRNNAMGRYREAPGKERELVAAIPYSGDSTSYADSVKGRFTISRDNAKNTVYLQMNSLKPEDTAVYYCNAAIDGIYLGSYTAYGYDSWGQGTQVTVSS

Out:
["low polyreactivity", "low polyreactivity", "low polyreactivity", "high polyreactivity", "low polyreactivity"]

###

# Experimental protocol: yeast display, Sf9 membrane polyspecificity reagent, FACS + sequencing; frameworks hold sequencing errors
Endpoint label: polyreactivity (PSR sort gate)

In: Consider the sequence QVQLVESGGGLVQAGGSLRLSCAASGSIFKYYAMGWYRQAPGKERQLVAVITSGGSTYYADSVKGRFTISRDNAKNTVYLQMNSLKPEDTAVYYCAAGVRAYNWGEYDYWGLGTQVTVSS . State its measured polyreactivity (PSR sort gate).
Out: low polyreactivity

In: Consider the sequence QVQLVESGGGLVQAGGRLRLSCPASGSTFYYYGMGWYRQAHGKERELVAAINCSCGTTYYADSVKGRFTISRDNAKNTVYLQLNSLKPEDTAVYYCAAAFYIYGVEGDYWGQGTQVTVSS . State its measured polyreactivity (PSR sort gate).
Out: low polyreactivity
